# MEASURED ON: Chymase purified form human skin mast cells (Homo sapiens)
# Construct: Chymase purified form human skin mast cells was obtained from Calbiochem
# Sequence (P23946 22-247): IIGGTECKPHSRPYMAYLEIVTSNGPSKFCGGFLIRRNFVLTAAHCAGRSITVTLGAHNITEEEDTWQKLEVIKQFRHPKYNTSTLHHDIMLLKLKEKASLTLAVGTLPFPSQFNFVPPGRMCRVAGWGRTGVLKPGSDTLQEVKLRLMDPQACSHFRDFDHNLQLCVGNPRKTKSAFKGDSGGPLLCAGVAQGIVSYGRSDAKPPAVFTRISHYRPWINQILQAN
# EXPERIMENT NOTES: chymase peptide substrate assay (AAPF-AMC fluorescence)
# SETTINGS: 0.02 mM AAPF-substrate, 1 nM Chymase, pH 7.4, room temperature, 30 min pre-incubation
MEASURE: IC50 (nM)

a: Cc1c(C(C2=C(O)C(c3ccccc3)CC2=O)c2ccccc2)[nH]c2ccc(F)cc12 (stereo not shown)
b: Cc1c(C(C2=C(O)[C@@](C)(c3ccccc3)NC2=O)c2ccccc2)[nH]c2ccc(F)cc12 (stereo partly shown)
c: CC(=O)NCCc1c(C(C2=C(O)C(c3ccccc3)CC2=O)c2ccccc2)[nH]c2cc(F)ccc12 (stereo not shown)
d: CC(=O)NCCc1c(C(C2=C(O)C(Cc3ccccc3)OC2=O)c2ccccc2)[nH]c2cc(F)ccc12 (stereo not shown)
# desc sort on IC50 across 4 compounds Put the labels in the order asked and list them.
d, b, c, a
